Conditions: 298.15 K; 101.33 kPa; Liquid; Vibrating tube method
Numbers after ± are expanded uncertainties.
Property: mass density; scope: individual molecules
Hey, just the number and the unit after it is fine.

MOLECULE: CC(C)O
mass density: 780.79 ± 0.13 kg/m3

Query block: Fill in the blank: the reported mass density of CCO is ____.
Result block: 785.02 ± 0.13 kg/m3

Query block: Fill in the blank: the reported mass density of COC(=O)OC [dimethyl carbonate] is ____.
Result block: 1063.26 ± 0.08 kg/m3

Query block: Fill in the blank: the reported mass density of CCCOC(=O)OCCC [dipropyl carbonate] is ____.
Result block: 938.35 ± 0.13 kg/m3

Query block: Fill in the blank: the reported mass density of CCCO is ____.
Result block: 800.06 ± 0.12 kg/m3

Query block: Fill in the blank: the reported mass density of CCOC(=O)OCC [diethyl carbonate] is ____.
Result block: 969.18 ± 0.07 kg/m3

These entries and their values trace back to the NIST ThermoML archive (doi:10.1016/j.fluid.2018.09.023).
